B1: POU domain, class 4, transcription factor 2, residues 256 to 327; numbered along this chain, Q12837 (parent)
chain: RDLEAFAERFKQRRIKLGVTQADVGSALANLKIPGVGSLSQSTICRFESLTLSHNNMIALKPILQAWLEEAE

Variants of: B1
Assay: abundance fitness (aPCA) (normalised: wild type 0, dead -1); higher = more abundant; growth selection in yeast, the domain comes from the species named
Conditions: Homo sapiens
Binned abundance fitness; ranges: zone 1: < -0.4; zone 2: ≥ -0.4 and < -0.1; zone 3: ≥ -0.1

Reference set, count: 3
>>> answer_label("RDLEAFAERFKQRRIKLGVTQADVGSALANLKIPGVGSLSQSTICRFESITLSHNNMIALKPILQAWLEEAE [L50I]")
"zone 2"
>>> answer_label("RDLEAFAERFKQRRIKLGVTQADVGSALANLKIPGVGSLSQSTICRFEPLTLSHNNMIALKPILQAWLEEAE [S49P]")
"zone 1"
>>> answer_label("RDLEAFAERFKQRRIKLGVTQADVGSALANLKIPGVGSLSQSTICRFESLTLSHNNMIALKPILQAWLREAE [E69R]")
"zone 2"

[ask] Where would RDLEAFAERFKQRRIKLGVTQADVGSALANLKDPGVGSLSQSTICRFESLTLSHNNMIALKPILQAWLEEAE [I33D] land among the classes by reported abundance fitness?
[reply] zone 2

[ask] Where would RDLEAFAERFKQRRIKLGVTQADVGPALANLKIPGVGSLSQSTICRFESLTLSHNNMIALKPILQAWLEEAE [S26P] land among the classes by reported abundance fitness?
[reply] zone 1
